# target-or-test-system: monoclonal antibody DD-1
# test-name: Competition ELISA with monoclonal antibody DD-1
# Type: binding, Biozzi mice
# protocol-conditions: competitor vs monoclonal antibody DD-1; plate coated with A-triCDD-RSA
recorded-metric: I50 (inhibits antibody binding by 50%) (ng)
One number for each entry, in ng.

1. Nc1c(Cl)ccc2c1Oc1cc(Cl)c(Cl)cc1O2 | 0.2
2. Clc1cc2oc3cc(Cl)c(Cl)cc3c2cc1Cl | 0.65
3. Oc1cc(Cl)c(Cl)cc1O | 2000

Let us move to another entry and its I50 (inhibits antibody binding by 50%).
// recorded I50 (inhibits antibody binding by 50%) for O=C(O)COc1cc(Cl)c(Cl)cc1Cl : 2000
